target: CDK7/CycH/MAT1 (Homo sapiens, UniProt P50613); construct: purchased ProQinase GmbH; assay: In vitro kinase assay (PKLight luciferase ATP readout), CDK7; format: biochemical; conditions: ratio of CDK2 IC50 to CDK7 IC50
Sequence (P50613 whole entry): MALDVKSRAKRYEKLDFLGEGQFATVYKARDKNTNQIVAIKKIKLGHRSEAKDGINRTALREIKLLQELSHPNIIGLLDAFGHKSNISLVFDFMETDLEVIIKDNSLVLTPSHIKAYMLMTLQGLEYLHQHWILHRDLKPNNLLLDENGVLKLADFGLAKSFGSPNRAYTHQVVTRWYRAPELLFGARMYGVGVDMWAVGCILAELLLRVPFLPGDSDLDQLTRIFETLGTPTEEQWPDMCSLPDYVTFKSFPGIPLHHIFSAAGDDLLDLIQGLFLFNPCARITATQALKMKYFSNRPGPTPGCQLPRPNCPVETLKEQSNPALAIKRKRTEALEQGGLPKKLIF
Sequence (P51946 whole entry partner): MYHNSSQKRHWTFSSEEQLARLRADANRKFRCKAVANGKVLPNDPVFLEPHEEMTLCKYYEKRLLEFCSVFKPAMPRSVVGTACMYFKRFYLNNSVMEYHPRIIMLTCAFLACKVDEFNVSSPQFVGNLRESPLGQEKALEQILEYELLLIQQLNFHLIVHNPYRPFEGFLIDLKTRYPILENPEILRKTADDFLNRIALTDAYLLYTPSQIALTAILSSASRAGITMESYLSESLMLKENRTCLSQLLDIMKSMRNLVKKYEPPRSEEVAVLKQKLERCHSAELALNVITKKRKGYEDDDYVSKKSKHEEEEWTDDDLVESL
Sequence (P51948 whole entry partner): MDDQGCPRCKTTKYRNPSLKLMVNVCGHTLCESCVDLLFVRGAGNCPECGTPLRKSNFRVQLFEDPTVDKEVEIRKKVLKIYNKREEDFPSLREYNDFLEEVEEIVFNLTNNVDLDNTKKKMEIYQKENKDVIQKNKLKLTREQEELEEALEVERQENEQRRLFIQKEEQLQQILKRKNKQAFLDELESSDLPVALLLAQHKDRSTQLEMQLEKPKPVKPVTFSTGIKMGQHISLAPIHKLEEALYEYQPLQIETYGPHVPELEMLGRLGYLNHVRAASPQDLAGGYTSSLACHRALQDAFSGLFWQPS
Where a name gives a salt, the structure may show the parent alone.
assay.readout: Selectivity CDK2/CDK7 (fold)

Selectivity CDK2/CDK7 recorded for this compound, CO[C@H]1CN[C@H](CNc2cc(NCc3ccccc3)n3ncc(C(C)C)c3n2)C1 , is 2.8

Selectivity CDK2/CDK7 recorded for this compound, CC(C)c1cnn2c(Nc3csc4ccccc34)cc(NC[C@H]3CCNC[C@@H]3O)nc12 , is 0.4

Selectivity CDK2/CDK7 recorded for this compound, CC(C)c1cnn2c(NCc3ccccc3)cc(NC[C@H]3NC[C@H](O)[C@@H]3O)nc12 , is 4.9

Selectivity CDK2/CDK7 recorded for this compound, CC(C)c1cnn2c(NCc3ccccc3)cc(N[C@H]3CN[C@@H](CO)C3)nc12 , is 6.1

Selectivity CDK2/CDK7 recorded for this compound, CC(C)c1cnn2c(NCc3ccccc3)cc(N[C@H]3CNCC[C@@]3(O)CO)nc12 , is 6.8

Selectivity CDK2/CDK7 recorded for this compound, CC(C)c1cnn2c(NCC3CCCCC3)cc(NCC3(O)CCNCC3)nc12 , is 4.3

Selectivity CDK2/CDK7 recorded for this compound, CC(C)c1cnn2c(NCc3ccccc3Cl)cc(NC[C@@]3(CO)CCNC3)nc12 (racemic) , is 0.3

Selectivity CDK2/CDK7 recorded for this compound, CO[C@@H]1CCNCC1Nc1cc(NCc2ccccc2)n2ncc(C(C)C)c2n1 (some centres unmarked) , is 7.5

[a] CC(C)c1cnn2c(NCc3ccccc3)cc(NC[C@]3(O)CCNC[C@H]3O)nc12 (racemic) [PPDA-002, hydrochloride]
[b] CC(C)c1cnn2c(NCC3CCCCC3)cc(NC[C@]3(O)CCNC[C@H]3O)nc12 (racemic)
[c] CC(C)c1cnn2c(NCc3ccccc3)cc(N[C@@H]3CN[C@H](CO)C3)nc12 [PPDA-026, hydrochloride]
Would you mind ranking these compounds by ascending Selectivity CDK2/CDK7? // format: requested-order list of labels b, c, a
(b: 0.5 fold, c: 2.3 fold, a: 113 fold)

[I] CC(C)c1cnn2c(NC(=O)C3CCNCC3)cc(NC[C@H]3CCNC[C@@H]3O)nc12 [PPDA-009, hydrochloride]
[II] CC(C)c1cnn2c(NCC3CCCCC3)cc(N[C@H]3CNC[C@H]3O)nc12
[III] CC(C)c1cnn2c(NCc3ccccc3Cl)cc(NCC3(O)CCNCC3)nc12
Would you mind ranking these compounds by ascending Selectivity CDK2/CDK7? // format: requested-order list of labels III, I, II
(III: 0.2 fold, I: 1.0 fold, II: 18 fold)

====

target: CDK7/CycH/MAT1 (Homo sapiens); construct: purchased ProQinase GmbH; assay: In vitro kinase assay (PKLight luciferase ATP readout), CDK7; format: biochemical; settings: ratio of CDK1 IC50 to CDK7 IC50
Counter-ions that a name gives are not always drawn.
assay.readout: Selectivity CDK1/CDK7 (fold)

[P] CC(C)c1cnn2c(NCC3CCCCC3)cc(NC[C@]3(O)CCNC[C@H]3O)nc12 (racemic)
[Q] CC(C)c1cnn2c(NC(=O)C3CCNCC3)cc(NC[C@H]3CCNC[C@@H]3O)nc12 [PPDA-009, hydrochloride]
[R] CC(C)c1cnn2c(NCc3ccccc3)cc(NC[C@]3(O)CCNC[C@H]3O)nc12 (racemic) [PPDA-002, hydrochloride]
Lab note: order the above by reported Selectivity CDK1/CDK7, lowest first, highest last. // format: requested-order list of labels Q, P, R
(Q: 1.2 fold, P: 8.9 fold, R: 77 fold)
